# Target Or System: BTK (Homo sapiens, UniProt Q06187)
# Sequence (Q06187 402-655 limits assumed): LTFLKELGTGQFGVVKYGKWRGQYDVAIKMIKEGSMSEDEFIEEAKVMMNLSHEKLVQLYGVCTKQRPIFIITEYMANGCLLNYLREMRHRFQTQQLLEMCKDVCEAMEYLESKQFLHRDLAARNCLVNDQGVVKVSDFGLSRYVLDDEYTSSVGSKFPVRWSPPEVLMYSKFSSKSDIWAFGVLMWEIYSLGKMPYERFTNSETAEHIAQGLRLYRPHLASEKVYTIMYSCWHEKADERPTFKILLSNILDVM
# Assay Procedure: biochemical
# Details: read-out: BTK inhibition (%), 0.75 uM BTK, […] probe 3l, 15 min preincubation
Reported Metric: inhibition at 10 µM (%)
Respond with the bare value in %.

These solved cases illustrate the format of a correct answer.
CCCC[C@H](CC)COC(=O)/C=C/c1ccc(OC)cc1    6.2
O=C(O)/C=C/c1ccc(O)c(O)c1    -21.8
CCC(C)C(=O)O[C@@H]1[C@@H](OC(C)=O)[C@]2(C)[C@H](C(C)=O)CC[C@@]23O[C@]32CC[C@H]3C[C@@H](O[C@H]4C[C@@H](OC)[C@H](O[C@@H]5O[C@H](C)[C@@H](O)[C@@H](OC)[C@H]5O)[C@@H](C)O4)CC[C@]3(C)[C@@H]12 (stereo partly shown)    -11.6
COC(=O)c1cc(OC)c2c(c1-c1c(C(=O)OC)cc(OC)c3c1OCO3)OCO2    2.8
Clc1ccc(C(c2ccccc2Cl)C(Cl)Cl)cc1 (stereo not shown)    19.5
COCCOC(=O)C1=C(C)NC(C)=C(C(=O)OC(C)C)C1c1cccc([N+](=O)[O-])c1 (stereo not shown)    5.4
Cc1cc(Nc2cc(CN3CCOCC3)c3nc(C)c(Cc4ccc(Cl)cc4F)n3n2)n[nH]1    56.6
NC1CCC(N[C@@H]2C[C@H]2c2ccccc2)CC1 (stereo partly shown)    13.1

Q) Quick one: inhibition at 10 µM of COc1ccc(CCO[C@@H]2O[C@H](CO[C@@H]3OC[C@H](O)[C@H](O)[C@H]3O)[C@@H](OC(=O)/C=C/c3ccc(O)c(OC)c3)[C@H](O[C@@H]3O[C@@H](C)[C@H](O)[C@@H](O)[C@H]3O)[C@H]2O)cc1O ?
A) 3.9

Q) Thanks! And COc1ccc2cc(CCC(C)=O)ccc2c1 ?
A) 7.6

Q) Quick one: C=C(C)[C@@H]1CC[C@]2(C(=O)O)CC[C@]3(C)[C@H](CC[C@@H]4[C@@]5(C)CC[C@H](O[C@@H]6OC[C@H](O)[C@H](O)[C@H]6O[C@@H]6O[C@@H](C)[C@H](O)[C@@H](O)[C@H]6O)[C@@](C)(CO)[C@@H]5CC[C@]43C)[C@@H]12
A) 34

Q) Same read-out for COc1cc([C@H]2Oc3cc([C@H]4Oc5cc(O)cc(O)c5C(=O)[C@@H]4O)ccc3O[C@@H]2CO)ccc1O ?
A) 24.1

Q) Note, next up: CCCC(=O)Nc1cccc(NC(=O)c2ccccc2Br)c1
A) 19.5

Q) Item: O=c1[nH]cc(F)c(=O)[nH]1
A) -0.7

----------
# inhibition at 10 µM per record follows
# Target Or System: BTK (Homo sapiens)
# Assay Procedure: biochemical
# Details: read-out: BTK inhibition (%), 0.75 uM BTK, […] probe 3l, 15 min preincubation
Be sure to follow the number with its unit.

The examples below pair each entry with its known result.
CC1(C)C=C(CN2C/C(=C\c3ccc(F)cc3)C(=O)/C(=C/c3ccc(F)cc3)C2)C(C)(C)N1O    9.3%
C=C1C[C@@H]2[C@H](CC[C@]3(C)C(=O)CC[C@@H]23)[C@@]2(C)C=CC(=O)C=C12    -6.9%
COCCNc1cc(NC(=O)N2CCCc3cc(CN4CCN(C)CC4=O)c(C=O)nc32)ncc1C#N    -16.2%
COc1c(C)c2c(c(O)c1C/C=C(\C)CCC(=O)OCCN1CCOCC1)C(=O)OC2    -15.2%
O=C1CCC(N2C(=O)c3ccccc3C2=O)C(=O)N1 (stereo not shown)    5.5%

Q) May I ask what inhibition at 10 µM has been recorded for CC(C)(O/N=C(\C(=O)N[C@@H]1C(=O)N2C(C(=O)[O-])=C(C[n+]3ccccc3)CS[C@H]12)c1csc(N)n1)C(=O)O ?
A) 6.8%

Q) Another molecule to look at: Cc1ccc(C)c(OCCCC(C)(C)C(=O)O)c1
A) -29.6%

Q) // repeat for O=C(NCCN1CCOCC1)Nc1ccc(C(=O)/C=C/c2cccc(N3CCOCC3)n2)cc1 and report
A) -0.8%

Q) Next: O=C1NC(=O)/C(=C/c2cccc(C(F)(F)F)c2)S1
A) 4.8%

Q) Follow-up item: CNC(=O)c1cc(COc2nnc(Nc3ccc(Cl)cc3)c3ccoc23)ccn1
A) 15.2%

Q) Next molecule up: O=C(Cn1nnc(-c2ccncc2)c1-c1ccccc1)Nc1ccc(-c2ccccc2)cn1
A) 39.4%

Q) Please answer likewise for O=c1cc(CN2CCOCC2)occ1OCCCCCSc1ccnc2cc(C(F)(F)F)ccc12
A) -34.7%

Q) Moving on to O=C(NO)c1cccc(C(=O)NCCc2ccccc2)c1
A) 10%
